- TARGET_DESC: AuroraB (Homo sapiens)
- Construct: 20 μL of AuroraB FL H is for a final volume of 41 μL; His
- Sequence (Q96GD4 whole entry): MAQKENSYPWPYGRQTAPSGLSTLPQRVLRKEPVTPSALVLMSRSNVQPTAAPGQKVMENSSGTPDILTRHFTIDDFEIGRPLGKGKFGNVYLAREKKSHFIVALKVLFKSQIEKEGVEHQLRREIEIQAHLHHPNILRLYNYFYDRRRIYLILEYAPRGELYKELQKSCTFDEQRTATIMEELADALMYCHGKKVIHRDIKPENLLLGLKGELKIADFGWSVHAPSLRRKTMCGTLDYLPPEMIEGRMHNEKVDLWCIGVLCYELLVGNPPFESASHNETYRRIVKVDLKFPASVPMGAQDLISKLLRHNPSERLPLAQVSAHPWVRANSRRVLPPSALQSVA
- ASSAY_DETAILS: AuroraB Homogeneous Time Resolved Fluorescent (HTRF) kinase assay
- Type: biochemical
- CONDITION_INFO: average; read-out: AurB_IC50_IP (uM Avg)
ENDPOINT: IC50 (µM)

[a] Clc1ccc(-c2nnc(Nc3ccc(Sc4ccnc5cc(Br)cnc45)cc3)c3ccccc23)cc1 [compound 324]
[b] COc1cnc2c(Oc3ccc(Nc4nnc(N5CCN6CCCCC[C@@H]6C5)c5ccccc45)cc3)ccnc2c1
[c] CCCc1cc(-c2ccccc2)nnc1Nc1ccc(Oc2ccnc3cc(OC)cnc23)cc1
## Input With the 3 compounds above, produce a list ordered by ascending IC50. Please list the labels according to the requested order.
## Output c, b, a
(c: 0.005 µM, b: 0.013 µM, a: 0.063 µM)

[P] c1cnc2c(Sc3ccc(Nc4nnc(-c5ccc6occc6c5)c5ccccc45)cc3)ccnc2c1
[Q] CCCc1cc(-c2ccccc2)nnc1Nc1ccc(Oc2ccnc3cc(C#N)ccc23)cc1
[R] COc1cnc2c(Oc3ccc(Nc4nnc(-c5ccccc5)c5ccsc45)cc3)ccnc2c1
## Input hey, can you rank those compounds up there by IC50? biggest number first please Present the labels in the sequence the task asks for.
## Output P, Q, R
